assay: Drug level in Swiss mouse kidney at 30 mg/kg, po administered twice daily via gavage for 5 days and measured post last dose by LC-MS/MS analysis; format: ADME, organism-based; settings: time 5 day, read-out: Drug uptake
observed.property: concentration at 120 h (ng/g)
Record the value in ng/g, omitting the unit from your answer.

Recorded result, "CN(C)C(=O)c1ccc(Oc2nc(-c3cnc(N)s3)nc(N3CCOCC3)n2)cc1" , concentration at 120 h: 160

* * *

target: Cytochrome P450 2D6 (Homo sapiens, UniProt P10635); assay: Inhibition of CYP2D6 in human liver microsomes using isoform-specific probe substrates preincubated for 5 mins followed by NADPH addition by LC-MS/MS analysis
Sequence (P10635 whole entry, canonical isoform): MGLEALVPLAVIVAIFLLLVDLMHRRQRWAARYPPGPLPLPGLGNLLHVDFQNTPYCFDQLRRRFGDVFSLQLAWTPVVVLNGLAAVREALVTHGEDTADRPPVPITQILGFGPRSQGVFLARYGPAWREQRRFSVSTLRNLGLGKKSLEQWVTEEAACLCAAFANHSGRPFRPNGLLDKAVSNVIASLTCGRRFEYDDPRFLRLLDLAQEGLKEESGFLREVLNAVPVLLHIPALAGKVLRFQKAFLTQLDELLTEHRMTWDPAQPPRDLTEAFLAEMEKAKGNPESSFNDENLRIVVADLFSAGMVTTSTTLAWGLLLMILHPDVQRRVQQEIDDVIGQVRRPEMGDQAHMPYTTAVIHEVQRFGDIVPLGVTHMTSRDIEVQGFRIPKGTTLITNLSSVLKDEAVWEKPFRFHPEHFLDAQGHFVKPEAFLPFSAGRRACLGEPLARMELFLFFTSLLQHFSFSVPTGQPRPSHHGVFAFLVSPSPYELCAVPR
pIC50: −log10 of the molar value.
Give pIC50 for every item shown.

The measured pIC50 that "CN(C)C(=O)c1ccc(Oc2nc(-c3cnc(N)s3)nc(N3CCOCC3)n2)cc1" showed for Cytochrome P450 2D6 (Homo sapiens, UniProt P10635) is < 5.00

The measured pIC50 that "CN(C)C(=O)c1ccc(Oc2nc(-c3ccc(N)nc3)nc(N3CCOCC3)n2)cc1" showed for Cytochrome P450 2D6 (Homo sapiens, UniProt P10635) is < 5.00

The measured pIC50 that "CN(C)C(=O)c1ccc(Oc2nc(-c3ccnc4[nH]ccc34)nc(N3CCOCC3)n2)cc1" showed for Cytochrome P450 2D6 (Homo sapiens, UniProt P10635) is < 5.00

* * *

target: UniProt:P08684; assay: Inhibition of CYP3A4 in human liver microsomes using isoform-specific probe substrates preincubated for 5 mins followed by NADPH addition by LC-MS/MS analysis
Sequence (P08684 whole entry, canonical isoform): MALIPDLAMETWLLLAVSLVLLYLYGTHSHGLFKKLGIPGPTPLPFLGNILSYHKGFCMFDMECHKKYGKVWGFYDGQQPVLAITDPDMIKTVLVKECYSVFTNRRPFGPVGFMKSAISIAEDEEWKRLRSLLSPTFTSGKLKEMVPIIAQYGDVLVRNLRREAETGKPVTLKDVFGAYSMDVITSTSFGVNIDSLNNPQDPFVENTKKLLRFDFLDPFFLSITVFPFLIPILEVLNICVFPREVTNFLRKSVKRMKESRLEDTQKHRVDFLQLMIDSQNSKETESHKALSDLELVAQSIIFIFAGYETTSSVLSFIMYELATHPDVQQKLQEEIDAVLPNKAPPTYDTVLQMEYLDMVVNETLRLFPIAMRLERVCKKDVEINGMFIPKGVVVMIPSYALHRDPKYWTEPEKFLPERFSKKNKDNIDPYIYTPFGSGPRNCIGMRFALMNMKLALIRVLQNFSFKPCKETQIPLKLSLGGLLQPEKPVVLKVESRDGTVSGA
Give IC50 for every item shown.

The measured IC50 that "CN(C)C(=O)c1ccc(Oc2nc(-c3ccnc4[nH]ccc34)nc(N3CCOCC3)n2)cc1" showed for UniProt:P08684 is > 10 µM

The measured IC50 that "CN(C)C(=O)c1ccc(Oc2nc(-c3cnc(N)s3)nc(N3CCOCC3)n2)cc1" showed for UniProt:P08684 is > 10 µM

The measured IC50 that "CN(C)C(=O)c1ccc(Oc2nc(-c3ccc(N)nc3)nc(N3CCOCC3)n2)cc1" showed for UniProt:P08684 is > 10 µM

* * *

assay: Metabolic stability in dog liver microsomes assessed as parent compound remaining at 10 uM remaining after 120 mins in presence of NADPH by HPLC analysis; assay type: ADME, Canis lupus familiaris, Microsome; details: read-out: Stabilty
observed.property: remaining at 2 h, 10 µM (%)
Record the value in %, omitting the unit from your answer.

Recorded result, "CN(C)C(=O)c1ccc(Oc2nc(-c3ccc(N)nc3)nc(N3CCOCC3)n2)cc1" , remaining at 2 h, 10 µM: 93

Recorded result, "CN(C)C(=O)c1ccc(Oc2nc(-c3ccnc4[nH]ccc34)nc(N3CCOCC3)n2)cc1" , remaining at 2 h, 10 µM: 77

Recorded result, "CN(C)C(=O)c1ccc(Oc2nc(-c3cnc(N)s3)nc(N3CCOCC3)n2)cc1" , remaining at 2 h, 10 µM: 105

Recorded result, "CN(C)C(=O)c1ccc(Oc2nc(-c3cccc4[nH]ncc34)nc(N3CCOCC3)n2)cc1" , remaining at 2 h, 10 µM: 83

* * *

test: Metabolic stability in mouse liver microsomes assessed as parent compound remaining at 10 uM remaining after 120 mins in presence of NADPH by HPLC analysis; assay type: ADME, Microsome; settings: read-out: Stabilty
observed.property: remaining at 2 h, 10 µM (%)
Record the value in %, omitting the unit from your answer.

Recorded result, "CN(C)C(=O)c1ccc(Oc2nc(-c3cnc(N)s3)nc(N3CCOCC3)n2)cc1" , remaining at 2 h, 10 µM: 103

Recorded result, "CN(C)C(=O)c1ccc(Oc2nc(-c3ccc(N)nc3)nc(N3CCOCC3)n2)cc1" , remaining at 2 h, 10 µM: 102

Recorded result, "CN(C)C(=O)c1ccc(Oc2nc(-c3ccnc4[nH]ccc34)nc(N3CCOCC3)n2)cc1" , remaining at 2 h, 10 µM: 68

Recorded result, "CN(C)C(=O)c1ccc(Oc2nc(-c3cccc4[nH]ncc34)nc(N3CCOCC3)n2)cc1" , remaining at 2 h, 10 µM: 45
